Recorded inhibition values for a group of molecules are listed next.
Target: 1-phosphatidylinositol 4,5-bisphosphate phosphodiesterase gamma-1 (Homo sapiens)
Experiment: PLC-gamma1 enzyme inhibitors, primary screen, biochemical, fluorescence, purified enzyme (AID 720700)
Conditions: purified PLC-gamma1, fluorogenic substrate, at 12.2 µM, hits give high values
Out of some 370,000 compounds screened, about 3,100 (0.84%) were called active. Shown is part of a subset that was picked to be rich in actives.
// units = %; emit number, no label

Some molecules with known inhibition results, for comparison:
MOLECULE: Cc1ccc(Cn2cc(CN3[C@@H](C)COc4cc(Br)ccc4S3(=O)=O)nn2)cc1
MEASUREMENT: 0.13
--
MOLECULE: C[C@@H]1COc2cccc(N3CCCC3)c2S(=O)(=O)N1C
MEASUREMENT: -3.06
--
MOLECULE: CCc1ccccc1N(CC(=O)NCCSCc1ccco1)S(C)(=O)=O
MEASUREMENT: -1.22
--
MOLECULE: Cc1cc(=O)[nH]c(SCC(=O)Nc2ccc(Cl)cc2C)n1
MEASUREMENT: 3.72
--
MOLECULE: N[C@@H](Cc1ccccc1)C(=O)N1CCC[C@@H]1C(=O)N1CCC2CCN(S(=O)(=O)c3ccccc3)CC21 (stereo not given in full)
MEASUREMENT: 1.45
--
MOLECULE: Clc1ccc(C2[C@H]3CN(CC4CCCCC4)[C@H](c4ccccc4)C34CC2(c2cccnc2)C4)cn1 (stereo not given in full)
MEASUREMENT: 12.1
--
MOLECULE: O=c1ccc2c(-c3ccccc3S(=O)(=O)O)c3ccc(O)c(O)c3oc-2c1O
MEASUREMENT: 25.2
--
MOLECULE: Cc1cc(C)cc(N(CC(=O)NCCSCc2ccco2)S(C)(=O)=O)c1
MEASUREMENT: 2.48

Field: next molecule
Quick one: inhibition of `Cc1cc(NS(=O)(=O)c2ccc(NC(=O)CSc3nnc(SCc4ccc(F)cc4)s3)cc2)nc(C)n1` ? 6.25

====

Biological target: 1-phosphatidylinositol 4,5-bisphosphate phosphodiesterase gamma-1 (Homo sapiens) (UniProt P19174)
Sequence (P19174 whole entry, looked up): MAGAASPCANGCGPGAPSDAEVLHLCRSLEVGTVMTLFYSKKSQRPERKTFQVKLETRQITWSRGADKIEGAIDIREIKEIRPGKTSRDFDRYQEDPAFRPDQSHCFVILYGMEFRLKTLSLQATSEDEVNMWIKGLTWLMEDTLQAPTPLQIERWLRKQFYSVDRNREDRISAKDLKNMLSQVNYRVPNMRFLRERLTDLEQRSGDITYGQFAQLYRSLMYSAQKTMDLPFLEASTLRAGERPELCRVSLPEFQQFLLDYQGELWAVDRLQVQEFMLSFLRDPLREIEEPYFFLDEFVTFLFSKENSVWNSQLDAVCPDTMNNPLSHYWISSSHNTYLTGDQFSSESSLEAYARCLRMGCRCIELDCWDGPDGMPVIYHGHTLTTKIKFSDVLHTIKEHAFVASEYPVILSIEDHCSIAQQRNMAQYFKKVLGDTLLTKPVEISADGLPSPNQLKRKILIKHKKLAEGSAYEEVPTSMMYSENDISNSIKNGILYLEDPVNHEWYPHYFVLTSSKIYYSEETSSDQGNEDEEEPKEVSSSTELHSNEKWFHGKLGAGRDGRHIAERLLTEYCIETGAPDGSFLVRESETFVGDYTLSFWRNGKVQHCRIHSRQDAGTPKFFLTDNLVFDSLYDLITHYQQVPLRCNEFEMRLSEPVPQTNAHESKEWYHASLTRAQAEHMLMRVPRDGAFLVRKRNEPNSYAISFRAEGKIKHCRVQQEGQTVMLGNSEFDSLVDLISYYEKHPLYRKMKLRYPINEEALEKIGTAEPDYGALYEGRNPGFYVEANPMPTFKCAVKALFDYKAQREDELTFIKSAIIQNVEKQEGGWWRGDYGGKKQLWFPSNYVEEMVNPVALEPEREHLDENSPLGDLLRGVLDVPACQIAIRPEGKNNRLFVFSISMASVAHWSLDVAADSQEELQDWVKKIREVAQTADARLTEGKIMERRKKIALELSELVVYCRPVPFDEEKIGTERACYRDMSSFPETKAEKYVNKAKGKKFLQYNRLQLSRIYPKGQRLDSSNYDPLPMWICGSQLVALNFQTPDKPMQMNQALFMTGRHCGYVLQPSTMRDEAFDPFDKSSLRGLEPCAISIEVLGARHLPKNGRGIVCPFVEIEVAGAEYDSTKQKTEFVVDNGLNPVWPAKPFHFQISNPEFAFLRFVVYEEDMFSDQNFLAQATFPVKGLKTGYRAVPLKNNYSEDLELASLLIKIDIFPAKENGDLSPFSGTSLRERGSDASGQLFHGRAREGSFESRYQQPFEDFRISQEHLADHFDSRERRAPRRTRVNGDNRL
Test: PLC-gamma1 enzyme inhibitors, primary screen, biochemical, fluorescence, purified enzyme (AID 720700)
Details: purified PLC-gamma1, fluorogenic substrate, at 12.2 µM, hits give high values
The whole screen tested about 370,000 compounds, of which about 3,100 (0.84%) were called active. The list comes from a sample in which actives are over-represented; it also holds close analogues and randomly drawn compounds.
Recorded inhibition values for a group of compounds are listed next.
// units = %; emit number, no label

SMILES CODE: C=CC[C@@H](CC(=O)NCCO)C(=O)N[C@H](C)COC(=O)[C@@H](CC=C)CC(=O)OC(C)(C)C
UNIT TEXT: %
inhibition: 9.97

Field: next compound
Quick one: inhibition of `CC(=O)Nc1ccc(OC[C@@H](O)CN2CCC(C(O)(c3ccccc3)c3ccccc3)CC2)cc1` ? -0.12

====

Target: 1-phosphatidylinositol 4,5-bisphosphate phosphodiesterase gamma-1 (Homo sapiens)
Test: PLC-gamma1 enzyme inhibitors, primary screen, biochemical, fluorescence, purified enzyme (AID 720700)
Conditions: purified PLC-gamma1, fluorogenic substrate, at 12.2 µM
Out of some 370,000 compounds screened, about 3,100 (0.84%) were called active. Cut-off read from the data, not from the text of the source: active = inhibition above about 9.5%; inactive = the rest. What follows is part of a selection rich in actives, with near analogues and random picks from the rest.
The reply should be one of these categories: y = active, n = inactive

Some entries whose results are on file:
COMPOUND: COc1ccc(-c2cc(-c3nnc(SCc4ccc([N+](=O)[O-])cc4)n3N)[nH]n2)cc1
GROUP LABEL: n
//
COMPOUND: FC(F)(F)c1cnc(Oc2ccccc2-c2nnc(-c3ccc(Cl)cc3)o2)c(Cl)c1
GROUP LABEL: y
//
COMPOUND: O=c1c2ccccc2c(-c2ccccc2)nn1-c1ccccn1
GROUP LABEL: n

Hi team, can someone confirm the assay call for `CCOC(=O)C(=O)N(Cc1ccccc1)c1ccccc1C(=O)Nc1cc(OC)ccc1OC` ? n

Next entry: `CCC(=O)Nc1nc(OC)cc(OC)n1` n

Next entry: CC(CCN1CCC(C(O)(c2ccccc2)c2ccccc2)CC1)Oc1ccc(Cl)cc1 (stereo not drawn) n

Next entry: O=C(OC12CCCN(C1)/C(=C/c1cccnc1)C2)C1CCCC1 (stereo not drawn) n

Next entry: `CC1(C)CC(=O)C=C(NC2CC(C)(C)NC(C)(C)C2)C1` y

Next entry: `Cc1ccc(NC(=S)NNC(=O)CSc2nnc(SCc3ccccc3Cl)s2)cc1` n

Next entry: `O=c1c2ccccc2c(-c2ccc(Br)cc2)nn1Cc1ccccc1` n

Next entry: `Cc1cc(C)cc(NS(=O)(=O)c2ccc(Oc3ncc(C(F)(F)F)cc3Cl)cc2)c1` n

Next entry: `COc1cc(OC)nc(S(C)(=O)=O)n1` y

Next entry: Cc1ccc(-n2ncc3c2CC(C)(C)CC3NC(=O)Cc2c(C)noc2C)cc1 (stereo not drawn) n

Next entry: `O=C(c1ccccn1)c1ncc(C(F)(F)F)cc1Cl` n

Next entry: `O=C(CN1CCC(NC(=O)NCc2ccccc2)CC1)Nc1ccc2c(c1)OCCO2` n

Next entry: `C[C@H]1CCC/C=C/C(=O)c2c(O)cc(O)cc2CC(=O)O1` n

Next entry: COc1ccc(-n2ncc3c2CC(C)(C)CC3NC(=O)CCc2c(C)nn(C)c2C)cc1 (stereo not drawn) n

Next entry: `COc1ccc(Cn2cc(CN3[C@@H](CC(C)C)COc4cc(Br)ccc4S3(=O)=O)nn2)cc1` n

Next entry: Cc1ccc(C(=O)N(Cc2ccccn2)CC2CCCO2)cc1 (stereo not drawn) n

Next entry: Cc1ccc(-n2ncc3c2CC(C)(C)CC3NC(=O)CCc2cnn(C)c2)cc1 (stereo not drawn) y

Next entry: `COC(=O)NNC1=CC(=O)CC(C)(C)C1` n

Next entry: O=C(Nc1ccccc1Cl)/C(Cl)=C(\Cl)S(=O)c1ccccc1 (stereo not drawn) y

Next entry: `CC1(C)CC(=O)C=C(NCCCNC2CCCCC2)C1` n
